Cited source for all entries: paper PMC8844826

Target: T1, GST-Arc 195-364 (rat) (rat, UniProt Q63053 195-364)
T1 construct: rat Arc residues 195-364, Uniprot Q63053; GST is followed by a thrombin and a factor Xa site; the protein was eluted with glutathione and no cleavage is described; also called pGEX4T1-Arc 195-364; source: E. coli BL21-DE3-pLysS, purified (Glutathione Sepharose, SEC)
T1 sequence (looked up): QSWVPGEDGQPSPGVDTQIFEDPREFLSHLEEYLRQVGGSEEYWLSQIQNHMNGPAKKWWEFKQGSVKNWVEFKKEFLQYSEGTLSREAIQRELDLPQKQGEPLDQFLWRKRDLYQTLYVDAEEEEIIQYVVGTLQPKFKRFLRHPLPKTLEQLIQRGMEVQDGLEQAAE
Assay: fluorescence polarisation; saturation binding: increasing protein, fixed fluorescently labeled peptide; 50 mM Tris (pH 8.0), 300 mM NaCl, 10 mM EDTA, 1 mM TCEP; 20 min on ice
Details: both partners purified
Ends that are not written are not given here. TAMRA = 5 (and 6)-carboxytetramethylrhodamine
Test readout: Kd (µM)
Numbers only, in µM.

Name the recorded Kd for {TAMRA}-GAITRIPSYRYRYQRR (added glycine between TAMRA and A222; also called TMR labeled Stg_(A222-R236); source: synthetic peptide (in-house)) [TAMRA-G-A222ITRIPSYRYRYQRR236 (fluorescently labeled Stg A222-R236 peptide)] .
8.37
